- Test system: MDA-MB-231 breast
- Test details: NCI tumour cell line growth inhibition, 48 h; in the data active = GI50 below about 0.43 µM; inactive = the rest
Result category, one only: 1 for active, 0 for inactive

Solved cases (2 shown):
| Compound string | Class assignment |
| --- | --- |
| CN1CCN(Cc2ccc(Nc3ncc(Cl)c(Nc4ccccc4S(=O)(=O)N(C)C)n3)cc2)CC1 | 1 |
| Cc1ccc2sc3c(NCCCNCCO)nc4ccccc4c3c(=O)c2c1 | 0 |

Turning to the following molecule.
## Task Test call, this molecule: "C/C(=C\c1c[nH]c2ccccc12)[N+](=O)[O-]"
## Result 0

###

- Tested on: SW-620 colon
- Test details: NCI tumour cell line growth inhibition, 48 h
Would you kindly list TGI for each of these compounds?

| Compound | TGI |
| --- | --- |
| C/C(=C\COP(=O)(O)OP(=O)(O)O)CC/C=C(\C)CNc1ccc([N+](=O)[O-])cc1 | > 100 µM |

State the recorded TGI for every item in the following list.
1. COC(=O)c1c(C(=O)OC)c(C(c2ccccc2)c2ccccc2)n(-c2ccccc2)c1Cl
2. CC/C(=C(\CC)c1ccc(OCCN(CC)CC)cc1)c1ccc(OCCN(CC)CC)cc1
3. CN=S(=O)(C[C@]1(O)CC2OC1C1OC(C)(C)OC21)c1ccccc1 (stereo partly drawn)
4. COc1cc(-c2c(C)c(C)nc(OC)c2C#N)cc(OC)c1OC
5. CN1CCN(C(=S)N(C)C(=O)c2cccs2)CC1

## Result
> 10 µM
7.79 µM
> 100 µM
> 100 µM
> 100 µM

State the recorded TGI for every item in the following list.
1. CN(C)CC1CCn2c(c(C3=C(c4cn(C)c5ccccc45)C(=O)NC3=O)c3ccccc32)C1 (stereo not drawn)
2. N=C(N)C1CN(CC=O)C(=O)NC1=O (stereo not drawn)

## Result
1: 8.32 µM; 2: > 100 µM

State the recorded TGI for every item in the following list.
1. CC1C2=CC=C(O2)C(C)(C)C2=CC=C(O2)C(C)(C)C2=CC=C(O2)C(C)(C)C2=CC=C1O2
2. O=C(C=Nc1ccccc1C(=O)[O-])c1cccs1.O=C(C=Nc1ccccc1C(=O)[O-])c1cccs1.[Cu+2]

## Result
1: > 100 µM; 2: > 100 µM

State the recorded TGI for every item in the following list.
1. O=C(O)c1cccc(CC(Br)C(=O)O)c1 (stereo not drawn)
2. NC(=O)NC(=O)c1ccc(NC(=O)CBr)cc1
3. C(/C=N/NC1=NCCCN1)=N\NC1=NCCCN1
4. Clc1ccc(CO/N=C(\Cn2ccnc2)c2ccc(Cl)cc2Cl)c(Cl)c1
5. CSC(=S)NNC(=O)c1ccncc1
6. CC(C)(C)C(=O)Nc1cccc(-c2ccc[nH]2)n1

## Result
1: > 100 µM; 2: 1.74 µM; 3: > 100 µM; 4: 3.2 µM; 5: 23.6 µM; 6: > 100 µM

State the recorded TGI for every item in the following list.
1. S=C1NN=C2C(=C3CCCC4C5CCCCC5N2C34)N1 (stereo not drawn)
2. Cc1ccc(C(=O)NC2CCCCC2)cc1-c1ccc(C(=O)NCC2CC2)cc1

## Result
> 100 µM
> 25 µM

State the recorded TGI for every item in the following list.
1. Cn1cc(C2=C(c3c4n(c5ccccc35)CCC(CN)CC4)C(=O)NC2=O)c2ccccc21 (stereo not drawn)
2. COc1cnc2c(c1)C(=O)c1c-2n(CCCN2CCN(C)CC2)c(=O)c2cc(Cl)ccc12
3. Cc1cccc(N=C2c3cc([N+](=O)[O-])ccc3-c3c2cc([N+](=O)[O-])cc3[N+](=O)[O-])c1
4. C[C@]12CCC(=O)C=C1CC[C@@H]1[C@@H]2CC[C@]2(C)C(=O)/C(=C/c3cccc(OCCN4CCOCC4)c3)C[C@@H]12
5. Cn1c2cccc3nnc4cccc(c4c32)n1C
6. COc1ccc(CCN(C)C(=O)CC(C#N)(c2ccccc2)c2ccc(OC)c(OC)c2)cc1OC (stereo not drawn)
7. COC1/C=C\OC2(C)Oc3c(C)c(O)c4c(O)c(c(CN(C)C)c(O)c4c3C2=O)NC(=O)/C(C)=C\C=C/C(C)C(O)C(C)C(O)C(C)C(OC(C)=O)C1C (stereo not drawn)

## Result
1. 7.9 µM
2. 12.8 µM
3. 3.76 µM
4. 27.7 µM
5. > 100 µM
6. > 100 µM
7. 75.6 µM

State the recorded TGI for every item in the following list.
1. CCOC(=O)/C=C1\Nc2ccccc2-n2nnnc21
2. COc1ccc(OC)c2cc(C3(C)SCCCS3)ccc12

## Result
58.6 µM
> 100 µM

State the recorded TGI for every item in the following list.
1. CN(C)CCN1C(=O)c2ccccc2C1(O)c1ccc(Cl)cc1 (stereo not drawn)
2. O=c1[nH]c2ccsc2c(=O)n1COCc1ccccc1
3. C[C@@H]1OC2(O)[C@@H]3CCCN3C(=O)N(Cc3ccccc3)N2C1=O (stereo partly drawn)
4. COc1cc2c(cc1OC)[C@@]1(C)C(=O)c3cc4c(cc3[C@H]1N(C)C2=O)OCO4
5. COc1ccc(NC(C)=O)cc1N1C(=O)/C(=C\c2cc(OC)c(OC)c(OC)c2)S(=O)(=O)C1c1ccccc1 (stereo not drawn)

## Result
1. > 100 µM
2. > 100 µM
3. > 100 µM
4. > 100 µM
5. > 100 µM
